settings: in DMF, 308.15 K
readout.label: solubility (mole fraction)
// return just the number, without any unit appended

Query block: For the compound CSCC1CN(/N=C/c2ccc([N+](=O)[O-])o2)C(=O)O1 (stereo unspecified) , give its reported solubility (mole fraction).
Result block: 0.0229

* * *

details: in ethyl acetate, 303.15 K
readout.label: solubility (mole fraction)

Query block: Check the records and state solubility (mole fraction) for CSCC1CN(/N=C/c2ccc([N+](=O)[O-])o2)C(=O)O1 (stereo unspecified)
Result block: 0.000389

* * *

settings: in THF, 303.15 K
readout.label: solubility (mole fraction)
Write no unit; give the number alone.

Query block: Answer with reported solubility (mole fraction) of CSCC1CN(/N=C/c2ccc([N+](=O)[O-])o2)C(=O)O1 (stereo unspecified)
Result block: 0.00103
